Entries annotated with measured growth inhibition
Method summary: NCI Yeast Anticancer Drug Screen. Data for the mec2-1 strain (AID 157)
Measurement context: S. cerevisiae mec2-1 strain, at 5.0 µM (retest, dose inferred, filed as 0.5), stronger effect = higher value
Method: Growth inhibition of yeast strains with defined genetic alterations is measured as a screen for potential anti-cancer activity. Selected strains with alterations in DNA damage repair or cell cycle control were exposed to compounds and growth inhibition was measured relative to vehicle treated controls. The strain used in this assay is mec2-1
This is part of a sample that, as a whole, favours compounds with a hit. Of some 79,000 tested, about 15% had one in any assay.
Give the number; % is assumed, so skip it.

Example entries and their recorded answers appear below.
[[record]]
compound = "Cc1cc(-c2ccccc2)nc2nc3ccccc3n12"
result_number = 16

[[record]]
compound = "CC1=NC(C)=C(/C(C)=N/NC(=O)c2ccccc2O)C(C)/C1=C(/C)NNC(=O)c1ccccc1O (stereo not drawn)"
result_number = 12

[[record]]
compound = "Cc1[nH]nc(-c2ccon2)c1N=O"
result_number = -28

[[record]]
compound = "CC(C)N(C(=O)c1ccc(Cl)c(Cl)c1)C(C)C"
result_number = -14

[[record]]
compound = "CCN(CC)CCOc1ccc(/C=C(\\C#N)c2ccc(OC)cc2)cc1"
result_number = 17

[[record]]
compound = "COc1ccc2c(C)cc(N/N=C/c3ccc(OC)c4ccccc34)nc2c1"
result_number = 51


## Input growth inhibition lookup needed for `Cc1cc(C(C)(CC(C)C)c2ccc(O)c(C)c2)ccc1O` , thanks.
## Output 98

## Input Bench note: what growth inhibition did CCCN(CCC)CC(O)c1cc(-c2ccccc2)nc2c(Cl)cc(Cl)cc12 (stereo not drawn) show?
## Output -2
